- test system: PDGFRB (human)
- protocol details: KINOMEscan competition binding
- conditions: compound 10.0 µM
Some compounds, each annotated with its measured kinase still bound, per cent of control.
Only the number, expressed in %, is required.

Q: I would be grateful if you could share the reported kinase still bound, per cent of control for NC(=O)Nc1cc(-c2cccc(F)c2)sc1C(=O)N[C@@H]1CCCNC1 .
A: 0

Q: Similarly, O=C(Nc1cccc(Nc2ncc(Br)c(NCCc3cnc[nH]3)n2)c1)N1CCCC1 ?
A: 0

Q: Similarly, CCN(CC)CCCCNc1ncc2c(n1)N(C)C(=O)N(c1c(Cl)c(OC)cc(OC)c1Cl)C2 ?
A: 21

Q: Similarly, COc1cc2ncn(-c3cc(OCc4ccccc4C(F)(F)F)c(C(N)=O)s3)c2cc1OC ?
A: 5.3
